// data source = PubChem BioAssay AID179

Listed next: entries and their corresponding EC50.
- System: CEM cells HIV-1 protection, formazan growth assay
- protocolDetails: NCI AIDS Antiviral Assay
Where a SMILES comes first, the peptide text is derived from it. [ ]: non-standard residue; d: D form. The star is where a group is joined. ξ: configuration not given here. Boc = CC(C)(C)OC(=O)*; OBn = c1ccc(CO*)cc1; ξP = O=C(O)C1CCCN1
measurementKind: EC50

INSERT INTO results (molecule, valuereported) VALUES
  ('COc1ccc(NC(=O)C2C(=O)N(c3ccc(OC)cc3)C(=O)/C2=N\NC(N)=O)cc1 (configuration not stated)', '> 61.7 µM'),
  ('Cc1ccc2c(c1)sc1nnc(S(C)(=O)=O)n12', '> 200 µM'),
  ('C=C1C(=O)O[C@H]2[C@H]3O[C@@H](C[C@@H]12)[C@@]1(C)CC[C@H](O1)[C@H](C)CCC[C@H]3C', '> 20 µM'),
  ('OCCNCN(CNCCO)c1nc(N(CNCCO)CNCCO)nc(N(CNCCO)CNCCO)n1', '> 200 µM'),
  ('C=C=C(CC(CC=C(C)C)(C(C)=O)C(=O)OC(C)(C)C)S(=O)(=O)c1ccccc1 (configuration not stated)', '> 32.4 µM'),
  ('O=C1Cc2c([nH]c3ccc(Cl)cc23)-c2ccccc2N1', '> 200 µM'),
  ('CC(C)(C)OC(=O)N[C@@H](Cc1ccccc1)C(=O)N1CCCC1C(=O)OCc1ccccc1 (stereo partly drawn) (Boc-Phe-[ξP]-OBn)', '> 41.7 µM'),
  ('CCOC(=O)C1C2CCC1CC(=NNc1ccc([N+](=O)[O-])cc1[N+](=O)[O-])C2 (configuration not stated)', '> 50.1 µM'),
  ('Oc1ccc(C2SCc3nc4ccccc4n32)cc1 (configuration not stated)', '> 26.9 µM'),
  ('O=S(=O)(F)c1ccccc1C[P+](c1ccccc1)(c1ccccc1)c1ccccc1', '> 200 µM'),
  ('CC(C)(CO)CNc1cc(Cl)nc(N)n1', '> 200 µM'),
  ('O=C(O)C12CC3CC(C1)C2C=C3P(=O)(O)O (configuration not stated)', '> 1020 µM'),
  ('CCCCCCCCCCCCCCCCOCC(Cl)COP(=O)(O)OP(=O)(O)OCC1OC(n2cc(C)c(=O)[nH]c2=O)CC1O (configuration not stated)', '> 145 µM'),
  ('O=C(C/C(=N/O)C(F)(F)F)c1cccs1', '> 200 µM'),
  ('CCCCC(C#N)C(=O)NC(N)=O (configuration not stated)', '> 39.8 µM'),
  ('Cc1ccsc1/C=N/Nc1nc2ccccc2s1', '> 200 µM'),
  ('CC1(C)CCC2=C(C1)Nc1ccc(Cl)cc1NC2c1ccc([N+](=O)[O-])cc1 (configuration not stated)', '> 200 µM'),
  ('N#C/C(=C\c1ccc2ccccc2c1)C(=O)c1ccccc1', '> 7.08 µM'),
  ('COC(=O)c1c2c(cc3c1CC1(Cc4cc5c(c(C=O)c4C1)CCC5)C3)CCC2 (configuration not stated)', '> 200 µM'),
  ('Clc1ccc(CNCCCNCc2ccc(Cl)cc2Cl)c(Cl)c1', '> 200 µM'),
  ('NC(CCCCCCCCCCP(=O)(O)O)C(=O)O (configuration not stated)', '> 200 µM'),
  ('Cc1cn(COCC(O)C[N+](=O)[O-])c(=O)[nH]c1=O (configuration not stated)', '> 200 µM');
